- Tested on: Streptococcus agalactiae
- assay.overview: Antibacterial activity against Streptococcus agalactiae at 80 ug/ml after 24 hrs by Oxford cup assay
- Type: functional
- test.parameters: read-out: IZ
Known zone of inhibition at 80 µg/mL of a selection of compounds
reported.endpoint: zone of inhibition at 80 µg/mL

| structure | val |
| --- | --- |
| C=C[C@]1(C)C[C@@H](OC(=O)CSC(C)(C)CNC(=O)c2ccccc2N)[C@]2(C)[C@H](C)CC[C@]3(CCC(=O)[C@H]32)[C@@H](C)[C@@H]1O | 12 mm |
| C=C[C@]1(C)C[C@@H](OC(=O)CSC(C)(C)CNC(=O)[C@H](N)c2ccccc2)[C@]2(C)[C@H](C)CC[C@]3(CCC(=O)[C@H]32)[C@@H](C)[C@@H]1O | 10.1 mm |
| C=C[C@]1(C)C[C@@H](OC(=O)CSCCN(CC)CC)[C@]2(C)[C@H](C)CC[C@]3(CCC(=O)[C@H]32)[C@@H](C)[C@@H]1O | 11.1 mm |
| C=C[C@]1(C)C[C@@H](OC(=O)CSC(C)(C)CNC(=O)c2ccccc2Cl)[C@]2(C)[C@H](C)CC[C@]3(CCC(=O)[C@H]32)[C@@H](C)[C@@H]1O | 10.6 mm |
| C=C[C@]1(C)C[C@@H](OC(=O)CSC(C)(C)CNC(=O)c2cc3ccccc3[nH]2)[C@]2(C)[C@H](C)CC[C@]3(CCC(=O)[C@H]32)[C@@H](C)[C@@H]1O | 9.31 mm |
| C=C[C@]1(C)C[C@@H](OC(=O)CSC(C)(C)CNC(=O)c2ccccc2OC)[C@]2(C)[C@H](C)CC[C@]3(CCC(=O)[C@H]32)[C@@H](C)[C@@H]1O | 11.8 mm |
| C=C[C@]1(C)C[C@@H](OC(=O)CSC(C)(C)CNC(=O)[C@@H](N)c2ccccc2)[C@]2(C)[C@H](C)CC[C@]3(CCC(=O)[C@H]32)[C@@H](C)[C@@H]1O | 10.7 mm |
| C=C[C@]1(C)C[C@@H](OC(=O)CSC(C)(C)CNC(=O)OCc2ccccc2)[C@]2(C)[C@H](C)CC[C@]3(CCC(=O)[C@H]32)[C@@H](C)[C@@H]1O | 10.7 mm |
